TEST_DETAILS: folding stability dG unfold (combined trypsin and chymotrypsin); higher = more stable
Returns one of met or not met; met when folding stability dG unfold is >= 3 kcal/mol.

// inclusive: folding stability dG unfold at least 3 kcal/mol? input: SAGGSAMLVKVTITLKKGGKEYTLEQFVEVNPPDLKIEIPPEIKEKGWEIVDIEVEEITPEEAERKSAGGSA [r15_853_JUSTAS] not met

// inclusive: folding stability dG unfold at least 3 kcal/mol? input: SAGGSMAPDVKVEVEVFPDGLVLFRLTLPDGRPFLALAEVREDGRVKVVVFDLYPGEKVEFEIPIKSAGGSA [r2_99_TrMRF] met

// inclusive: folding stability dG unfold at least 3 kcal/mol? input: SAGGSAGGSAGGWYISIEPKNKKEKTIMIPPGDPDILEELADNGDRVSIFDPKNGKEFKVSAGGSAGGSAGG [r7_430_TrROS] not met

// inclusive: folding stability dG unfold at least 3 kcal/mol? input: SAGGSAGGSMTPVPGGYVITIETPAPGGVPLATLYVPSREEAEAAIAEIPAEDLTAVTVEPVLLSAGGSAGG [r6_705_JUSTAS] not met

// inclusive: folding stability dG unfold at least 3 kcal/mol? input: SAGGGMSTLVRLPPGGVEEREVPPGTEADLNAEFSPESKLVVRTFDPATGRWTETVYEPGGVPTVLSSSAGG [r13_74_JUSTAS] met

// inclusive: folding stability dG unfold at least 3 kcal/mol? input: SAGGSAGGDNKPLRVRIRSPANGQKMKFKIKPDKIEPGKTIEIKHGDKPHTFNINPAQIDELEPSAGGSAGG [r6_461_TrROS] not met

// inclusive: folding stability dG unfold at least 3 kcal/mol? input: SAGGSAGGSAPLSLVIDFPSGPATITFLEDGTARITYTDDDKTETIPVADLLKIPADVDPRSAGGSAGGSAG [r3_256_TrMRF] not met
